System: Mfn2 null MEFs
Assay: Mitochondrial elongation (aspect ratio) fusogenicity assay
Format: cell-based, mouse
Conditions: rank order of aspect ratio among 44 soluble library compounds
Give measured Fusogenicity Rank for each item. Keep answers brief.
Give bare numbers.

Solved entries (count: 4):
Molecule: Cc1cccc(NC(=O)CSCC(=O)N(Cc2ccc(N(C)C)cc2)C(C)C)c1
Fusogenicity Rank: 12
--
Molecule: Cc1cc(C)n2nc(C(=O)N3C[C@@H]4CCN(Cc5nccn5C)[C@@H]4C3)cc2n1 [drawing 198]
Fusogenicity Rank: 1
--
Molecule: Cc1nc[nH]c1CSCCn1cnc2cn(C)nc2c1=O [drawing 206]
Fusogenicity Rank: 42
--
Molecule: S=C(NCCSCc1ccco1)NC1CC2CCC1C2 (centres unmarked) [drawing 225]
Fusogenicity Rank: 23

Now for the molecule whose Fusogenicity Rank we want.
input: # input molecule: CCC(C)C1N=C2c3ccccc3N=C(SC(C)C(=O)Nc3cc(OC)cc(OC)c3)N2C1=O (centres unmarked) [drawing 234] ; wanted: its Fusogenicity Rank
output: 32

* * *

Assay: In vivo pharmacokinetics in mice
Settings: mouse, plasma, intramuscular, 1 mg/kg, IM, read-out: free drug concentration 2 hours after IM administration
Assay metric: concentration at 2 h

input: # input compound: CCn1c(CCCNC(=O)NC2CCOCC2)nnc1C1CC1 ; wanted: its concentration at 2 h
output: ~20 nM

* * *

Test system: Mfn2 null MEFs
Assay: Mitochondrial elongation (aspect ratio) fusogenicity assay
Type: cell-based, mouse
Conditions: rank order of aspect ratio among 44 soluble library compounds
Assay metric: Fusogenicity Rank

Compound: Cc1nnc(SCCCNC(=O)c2n[nH]c3c2CN(C)CC3)s1 [drawing 216]
Result: 34
--
Compound: Cc1cccc(C)c1NC(=O)CCCSCc1ncc(C(C)C)o1 [drawing 211]
Result: 25

Now for the compound whose Fusogenicity Rank we want.
input: # get_value(readout= Fusogenicity Rank, system= Mfn2 null MEFs) for O=C(NCCSCc1cccc(Cl)c1)C1CCCCn2nnnc21 (stereo not drawn) [drawing 222]
output: 38

* * *

Give measured % long compare to B for each item. Keep answers brief.
Test system: Mfn2 null MEFs
Assay: Mitochondrial elongation (aspect ratio) fusogenicity assay
Assay type: cell-based, mouse
Set-up: dose or concentration left out as unconfirmed
Conditions: mitochondrial elongation relative to Cpd B (B01 = 100); Mfn2 null MEFs, compound overnight as printed (FIG. 48)
One number for each entry, in %.

Solved entries (count: 6):
Molecule: CCCc1noc(C(C)Sc2nc3cc(C)ccc3[nH]2)n1 (stereo not drawn)
% long compare to B, %: 14
--
Molecule: Cn1c(Cc2cccs2)nnc1SCC(=O)Nc1sc2c(c1C(N)=O)CCC2
% long compare to B, %: 1
--
Molecule: S=C(NCCSCc1ccco1)NC1CC2CCC1C2 (stereo not drawn)
% long compare to B, %: 9
--
Molecule: O=C(CSc1nnc2n1CCCCC2)Nc1sc2c(c1C(=O)NCc1ccccc1)CCCC2
% long compare to B, %: 105
--
Molecule: NC(=O)c1c(NC(=O)CSc2nnc(-c3ccccc3)n2-c2ccccc2)sc2c1CCCC2
% long compare to B, %: 20
--
Molecule: Cc1cccc(-n2ccnc2SC(C)C(=O)Nc2sc3c(c2C(N)=O)CCC3)c1C (stereo not drawn)
% long compare to B, %: 21

Return reported % long compare to B values for all items listed beneath this line.
1. O=C(NCCCCc1ccccc1)Nc1ccc(F)cc1
2. Cc1ccccc1-c1nnc(SCC(=O)Nc2sc3c(c2C(N)=O)CCC3)n1C
3. Cn1c(CC(=O)Nc2ccccc2)nnc1SCC(=O)Nc1sc2c(c1C(=O)NCc1ccccc1)CCCC2
4. Cc1ccc(C(=O)C(C)Sc2nnc3c(=O)n(-c4ccc(C)c(C)c4)ccn23)cc1C (stereo not drawn)

output:
1. −4
2. 9
3. 26
4. 13

Return reported % long compare to B values for all items listed beneath this line.
1. Cc1ccc(-n2nnnc2SC(C)c2nc(-c3nnc[nH]3)no2)cc1 (stereo not drawn)
2. O=C(NCCSCc1ccccc1)NC1CCCC1
3. Cc1ccccc1NC(=O)NCCCCc1ccccc1
4. C=CCn1c(SCC(=O)Nc2sc3c(c2C(N)=O)CCC3)nnc1C1CCCCC1 [1-E1]
5. CC(Sc1nnc(-c2cccs2)n1-c1ccccc1)C(=O)Nc1sc2c(c1C(N)=O)CCC2 (stereo not drawn)

output:
[4, 29, 7, 38, "−26"]

* * *

Give measured % long compare to B for each item. Keep answers brief.
Test system: Mfn2 null MEFs
Assay: Mitochondrial elongation (aspect ratio) fusogenicity assay
Assay type: cell-based, mouse
Design: dose or concentration left out as unconfirmed
Conditions: mitochondrial elongation relative to Cpd B (B01 = 100); Mfn2 null MEFs, compound overnight as printed (FIG. 48)
One number for each entry, in %.

Solved entries (count: 7):
Compound: CC1CCc2c(sc(NC(=O)CSc3nnc4n3CCCCC4)c2C(N)=O)C1 (centres unmarked)
% long compare to B / %: 2
//
Compound: CC(c1nnc(SCC(=O)Nc2sc3c(c2C(N)=O)CCC3)n1-c1ccc(F)cc1)N(C)C (centres unmarked)
% long compare to B / %: 30
//
Compound: CCn1c(SCC(=O)Nc2sc3c(c2C(N)=O)CCC3)nnc1C1CC1
% long compare to B / %: 99
//
Compound: CC1CCc2c(sc(NC(=O)CSc3nc(C4CC4)n(-c4ccccc4)n3)c2C(N)=O)C1 (centres unmarked)
% long compare to B / %: −12
//
Compound: CCn1c(SCC(=O)Nc2sc3c(c2C(N)=O)CCC(C)C3)nnc1C1CC1 (centres unmarked)
% long compare to B / %: 6
//
Compound: Cc1ccccc1-n1cnnc1SCC(=O)Nc1sc2c(c1C(N)=O)CCC2
% long compare to B / %: 12
//
Compound: Cc1occc1-c1nnc(SC(C)C(=O)Nc2sc3c(c2C(N)=O)CCC3)n1-c1ccccc1 (centres unmarked)
% long compare to B / %: 20

Now for the compound whose % long compare to B we want.
input: # input compound: Cn1c(CC2CCS(=O)(=O)C2)nnc1SCC(=O)Nc1sc2c(c1C(N)=O)CCC2 (centres unmarked) ; wanted: its % long compare to B
output: 5
